procedure_text: compound enhancement of TRAIL-induced cell killing – NB7 cells plus caspase-8, luminescence, panel, dose response (AID 652002)
condition_context: NB7 neuroblastoma +caspase-8, no TRAIL, compound-alone cytotoxicity counter-screen, luminescence viability; NB7+Caspase-8; run 1; single replicate panel EC50
Recorded measurements of EC50, one per entry
readout_type: EC50

> print(dat)
                          chemical.structure  reported.value
 1  COCCCn1c(C(=O)Nc2ccc3c(c2)OCO3)cc2c(=O)n3cccc(C)c3nc21       > 12.5 µM
 2             O=C(Nc1ccc2[nH]ccc2c1)c1cccs1         7.12 µM
 3     CC(C)CCn1cnc2c([nH]c3cccc(Cl)c32)c1=O       > 12.5 µM
 4        CSc1ccc(/C=C/c2ccc3cccc(O)c3n2)cc1         7.93 µM
 5              Cc1ccc2oc(-c3cccc(N)c3)nc2c1         4.71 µM
 6  CN(C)CCCN(C(=O)c1ccc(C(=O)c2ccccc2)cc1)c1nc2ccc(F)cc2s1       > 12.5 µM
 7          C/C(=N\NC(=O)c1csc(C)c1C)c1ccco1       > 12.5 µM
 8             Cc1cc2nc3ccc(N(C)C)cc3nc2cc1N       > 12.5 µM
 9       CCN(CC)c1ccc(/C=N/NC(=O)c2ccco2)cc1       > 12.5 µM
10  Cc1cc(NC(=O)C2CCCC2)nc2c1c(=O)oc1ccccc12       > 12.5 µM
11      CCOC(=O)c1ccc(N/C=C/C(=O)c2ccco2)cc1       > 12.5 µM
12         CCOC(=O)c1cnc2c(-c3ccccc3)cnn2c1N       > 12.5 µM
13  COc1ccc(-c2cc(C(=O)N/N=C/c3cccnc3)c3ccccc3n2)cc1         11.3 µM
14  O=C1Cc2c(-c3ccccc3)cc(-c3cccc(Cl)c3)nc2-c2ccccc2N1       > 12.5 µM
15  CCCCCCc1cc2cc(S(=O)(=O)c3ccc(F)c(Cl)c3)c(=O)oc2cc1O       > 12.5 µM
16             O=C(ONC1=NCCCCC1)c1ccc(Cl)cc1       > 12.5 µM
17            c1ccc(-c2cnc(-c3ccccn3)nn2)cc1         5.74 µM
18  COc1ccc(-c2nnc(SCC(=O)c3[nH]c(C)c(C(C)=O)c3C)o2)cc1       > 12.5 µM
19  COC(=O)[C@]12CCCCC=C1N(Cc1cccc3ccccc13)C(=O)[C@H](CC(=O)NCc1ccc(OC)c(OC)c1)C2       > 12.5 µM
20  Cn1c(=O)c2c(SCC(=O)Nc3ccccc3F)nc(C3CC3)nc2n(C)c1=O       > 12.5 µM
21      C/C(=N\NC(=O)c1n[nH]c2c1CCC2)c1ccco1       > 12.5 µM
22        Cn1nnc(NC(=O)c2ccc(C(C)(C)C)cc2)n1       > 12.5 µM
23               CCOc1ccc(NC(=O)Nc2cccs2)cc1         10.7 µM
24  CCOC(=O)[C@]12Cc3cc4ccccc4cc3[C@H]1N(Cc1ccccc1)C(=O)c1cc(OC)ccc12       > 12.5 µM
25  CC(C)(C)OC(=O)NCc1ccc(NC(=O)c2nc[nH]c2C(=O)N[C@@H](Cc2ccccc2)C(=O)OCc2ccccc2)cc1       > 12.5 µM
26                  Cc1nc(Cl)c2oc3ccccc3c2n1       > 12.5 µM
27       COc1cccc(N/C=C/C(=O)c2ccc(Cl)cc2)c1         10.4 µM
